assay info: Therapeutic index, ratio of CC50 for human CEM-SS cells to EC50 for HIV1 3B
Assay type: cell-based
run parameters: read-out: Ratio CC50/EC50
measured parameter: selectivity ratio

CCc1c(Cc2ccccc2)n(COCc2ccccc2)c(=O)n(O)c1=O :: > 18
CC(C)c1c(Cc2ccccc2)n(COCc2ccc(F)cc2)c(=O)n(O)c1=O :: > 830
CCOCn1c(Cc2ccccc2)c(C(C)C)c(=O)n(O)c1=O :: > 4.7
CC(C)c1c(Cc2ccccc2)n(COCc2ccccc2)c(=O)[nH]c1=O :: > 1500
CC(C)c1c(Cc2ccccc2)n(COCc2ccccc2)c(=O)n(O)c1=O :: > 2500
